Read-out: Intercellular Adhesion Molecule 1 (ICAM1), ICAM1 (gene 3383)
Assay: BSK_KF3CT_ICAM1: BioMAP Diversity Plus: KF3CT Assay for Intercellular Adhesion Molecule 1 (ICAM1) Biomarker Activity (AID 2283067)
Conditions: primary human keratinocytes with fibroblasts; actives raise or lower the signal
The source made the active and inactive calls. How the source made its calls: active means hit-call score of the fitted dose curve at least 0.9, where 1 is the maximum; inactive means score below 0.9.
Your reply should match one of these outcome classes. t = active, f = inactive

Here's what some known entries look like.
Cc1ccn2nc(S(=O)(=O)Nc3c(F)cccc3F)nc2n1: f
CCCOCC(=Nc1ccc(Cl)cc1C(F)(F)F)n1ccnc1: t
CCCOc1nn(C(=O)NS(=O)(=O)c2ccccc2C(=O)OC)c(=O)n1C: f

Now look at this one.
// return assay outcome for CN(C)[C@@H]1C(=O)C(C(N)=O)=C(O)[C@@]2(O)C(=O)C3=C(O)c4c(O)cccc4[C@@](C)(O)[C@H]3[C@H](O)[C@@H]12 f

====

Test: BSK_SAg_Proliferation: Cell Proliferation Assessment in the BioMAP Diversity Plus: SAg Assay (AID 2283095);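 further: relative cell number as total protein by SRB absorbance in sub-confluent culture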
Details: primary human HUVEC with PBMC
Calls of active or inactive are those of the source. The calls were made as follows: active = hit-call score of the fitted dose curve at least 0.9, where 1 is the maximum; inactive = score below 0.9.
Your reply should match one of these outcome classes. 1.0 = active, 0.0 = inactive

Here's what some known entries look like.
CCc1cccc(C)c1N(C(=O)CCl)C(C)COC (centres undefined): 0.0
CNC(=O)ON=C(C)SC: 0.0
CCC(=NOC/C=C/Cl)C1=C(O)CC(C2CCOCC2)CC1=O (centres undefined): 0.0

// return assay outcome for CN1COCN(Cc2cnc(Cl)s2)C1=N[N+](=O)[O-] 0.0

Also CCOP(=S)(OCC)Oc1cc(C)nc(C(C)C)n1 ? 0.0

Also COP(=O)(OC)OC(Br)C(Cl)(Cl)Br (centres undefined) ? 1.0

Also FC(F)C(F)(F)OCC(Cn1cncn1)c1ccc(Cl)cc1Cl (centres undefined) ? 1.0

Also N#CSCSC#N ? 1.0

Also CCc1cnc(C2=NC(C)(C(C)C)C(=O)N2)c(C(=O)O)c1 (centres undefined) ? 0.0

====

Target: Heat shock factor protein 1 (Homo sapiens)
Assay: ATG_HSE_CIS: Attagene CIS-FACTORIAL HepG2 Assay for human Heat Shock Transcription Factor 1 (HSE) (AID 2282953)
Conditions: HepG2 HSE cis-reporter, Attagene RNA transcription; actives raise or lower the signal
Method: ATG_CIS is a cell-based, multiplexed-readout assay that uses HepG2, a human liver cell line, with measurements taken at 24 hours after chemical dosing in a 24-well plate.ATG_HSE_CIS is one of 52 assay component(s) measured or calculated from the ATG_CIS assay. […] This assay endpoint, ATG_HSE_CIS, was analyzed with bidirectional fitting relative to DMSO as the negative control and baseline of activity. […]
Active and inactive are the calls of the source. The calls were made as follows: active = hit-call score of the fitted dose curve at least 0.9, where 1 is the maximum; inactive = score below 0.9.
attribute measured: outcome

CCC(CC)Nc1c([N+](=O)[O-])cc(C)c(C)c1[N+](=O)[O-]: inactive
CSc1nc(NC(C)C)nc(NC(C)C)n1: inactive
CCOP(=S)(OCC)SCCSCC: inactive
O=c1ccc(=O)[nH][nH]1: inactive
Cc1ccn2nc(S(=O)(=O)Nc3c(F)cccc3F)nc2n1: inactive

Hi! What's the reported outcome for S=C1NCCN1 on Heat shock factor protein 1 (Homo sapiens)? inactive

Also CCCSP(=O)(OCC)Oc1ccc(Br)cc1Cl (configuration not stated) ? inactive

====

The reader will find reported AC50 values listed item by item below.
Tested on: SERPINA7 (gene 6906)
Test: CCTE_GLTED_hTBG: CCTE's human Thyroxine-binding Globulin (TBG) Inhibition Assay, Great Lakes Toxicology and Ecology Division (GLTED) Lab (AID 2284343);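 further: active chemicals lower fluorescence versus DMSO baseline by displacing probe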
The source made the active and inactive calls. Rule for the calls: active = hit-call score of the fitted dose curve at least 0.9, where 1 is the maximum; inconclusive = response in the unintended direction; inactive = score below 0.9.

C[Si](Cn1cncn1)(c1ccc(F)cc1)c1ccc(F)cc1: 4.09 µM (active)
CCC(CC)Nc1c([N+](=O)[O-])cc(C)c(C)c1[N+](=O)[O-]: 1.64 µM (active)
FC(F)C(F)(F)OCC(Cn1cncn1)c1ccc(Cl)cc1Cl (centres undefined): 10.1 µM (active)

Return reported AC50; argument: CCOP(=O)(NC(C)C)Oc1ccc(SC)c(C)c1 (centres undefined) 14.6 µM (active)

Also CCOP(=S)(Oc1cnc(C(C)(C)C)nc1)OC(C)C (centres undefined) ? 16.7 µM (active)

Also CCCSP(=O)(OCC)Oc1ccc(Br)cc1Cl (centres undefined) ? 14.1 µM (active)

Also CCOP(=S)(OCC)Oc1ccc([N+](=O)[O-])cc1 ? 11.6 µM (active)

Also O=C(O)c1cc(Oc2ccc(C(F)(F)F)cc2Cl)ccc1[N+](=O)[O-] ? 4.45 µM (active)

Also CCCCN(CC)c1c([N+](=O)[O-])cc(C(F)(F)F)cc1[N+](=O)[O-] ? 2.78 µM (active)

====

Target: Paired box protein Pax-6 (Homo sapiens)
Test: ATG_Pax6_CIS: Attagene CIS-FACTORIAL HepG2 Assay for human Paired Box 6 (PAX6) (AID 2282956)
Details: HepG2 CIS-FACTORIAL PAX6 reporter transcription, RNA readout; actives raise or lower the signal
Active and inactive are the calls of the source. Rule for the calls: active = hit-call score of the fitted dose curve at least 0.9, where 1 is the maximum; inactive = score below 0.9.
attribute measured: outcome

Check out these entries, answers already filled in.
CN(C)C(=O)Nc1cccc(C(F)(F)F)c1: inactive
CON=C(C(=O)OC)c1ccccc1CON=C(C)c1cccc(C(F)(F)F)c1: inactive
S=C1NCCN1: inactive
CC(=NC#N)N(C)Cc1ccc(Cl)nc1: inactive

Return reported outcome; argument: COc1cccc(C(=O)NN(C(=O)c2cc(C)cc(C)c2)C(C)(C)C)c1C inactive

Also CC(C1CC1)C(O)(Cn1cncn1)c1ccc(Cl)cc1 (centres undefined) ? inactive

Also CCOP(=S)(Oc1cnc(C(C)(C)C)nc1)OC(C)C (centres undefined) ? inactive

Also CCOP(=S)(OCC)SCCSCC ? inactive

Also N#CSCSC#N ? inactive

====

Read-out: Alkaline Phosphatase, Placental (ALPP) gene, ALPP (gene 250)
Experiment: LTEA_HepaRG_ALPP: Life Technologies and Expression Analysis (LTEA) Assay for Alkaline Phosphatase, Placental (ALPP) gene using HepaRG (AID 2283468)
Settings: mRNA level, 48 h; actives raise or lower the signal
Protocol: LTEA_HepaRG is a cell based, multiplexed-readout assay that uses HepaRG, a human liver cell line, with measurements taken at 48 hours after chemical dosing on a 96-well plate.LTEA_HepaRG_ALPP is one of 102 assay component(s) measured in the LTEA HepaRG cell culture assay. It is a marker of Cell proliferation, survival, death.Data from the assay component LTEA_HepaRG_ALPP was analyzed into 1 endpoint. […]
Activity calls are given as the source filed them. Rule for the calls: active = hit-call score of the fitted dose curve at least 0.9, where 1 is the maximum; inactive = score below 0.9.
Your reply should match one of these outcome classes. active, inactive

Here's what some known entries look like.
CC(C)N(C(=O)SCC(Cl)=C(Cl)Cl)C(C)C: inactive
COc1cccc(C(=O)NN(C(=O)c2cc(C)cc(C)c2)C(C)(C)C)c1C: inactive
CCCSP(=O)(OCC)Oc1ccc(Br)cc1Cl (stereo not given): inactive
CCCOCC(=Nc1ccc(Cl)cc1C(F)(F)F)n1ccnc1: active
CC(C)[C@H](C(=O)O[C@H](C#N)c1cccc(Oc2ccccc2)c1)c1ccc(Cl)cc1: inactive
CCC(=O)Nc1ccc(Cl)c(Cl)c1: active
Cc1nn(-c2cc(NS(C)(=O)=O)c(Cl)cc2Cl)c(=O)n1C(F)F: inactive
COP(=O)(OC)SCn1c(=O)oc2cc(Cl)cnc21: inactive

// return assay outcome for COc1cc(OC)nc(Sc2cccc(Cl)c2C(=O)O)n1 inactive

Also CCOP(=O)(SC(C)CC)N1CCSC1=O (stereo not given) ? inactive

Also CCC(=NOC/C=C/Cl)C1=C(O)CC(C2CCOCC2)CC1=O (stereo not given) ? inactive

Also O=C(O)c1cc(Oc2ccc(C(F)(F)F)cc2Cl)ccc1[N+](=O)[O-] ? inactive

Also CCc1cccc(C)c1N(C(=O)CCl)C(C)COC (stereo not given) ? inactive

Also CNC(=O)Oc1cccc2c1OC(C)(C)O2 ? inactive

Also C=C(C)[C@H]1Cc2c(ccc3c2O[C@@H]2COc4cc(OC)c(OC)cc4[C@@H]2C3=O)O1 ? active

Also CCCSP(=O)(OCC)SCCC ? inactive

Also CCC(CC)Nc1c([N+](=O)[O-])cc(C)c(C)c1[N+](=O)[O-] ? inactive

Also CCOC(=O)COc1cc(-c2nn(C)c(OC(F)F)c2Cl)c(F)cc1Cl ? inactive

Also COP(=O)(NC(C)=O)SC (stereo not given) ? inactive

Also C#CCC1=C(C)C(OC(=O)C2C(C=C(C)C)C2(C)C)CC1=O (stereo not given) ? inactive

Also COP(=O)(OC)OC(Br)C(Cl)(Cl)Br (stereo not given) ? inactive

Also CCCOc1nn(C(=O)NS(=O)(=O)c2ccccc2C(=O)OC)c(=O)n1C ? inactive

Also CC(Oc1cccc(Cl)c1)C(=O)O (stereo not given) ? inactive

Also CNc1cnn(-c2cccc(C(F)(F)F)c2)c(=O)c1Cl ? inactive

Also C[Si](Cn1cncn1)(c1ccc(F)cc1)c1ccc(F)cc1 ? active
